Reported values of T/C for individual entries
System: CD2F1 mice, L1210 leukemia ip, survival T/C
test_summary: NCI In Vivo Anticancer Drug Screen. Data for tumor model L1210 Leukemia (intraperitoneal) in CD2F1 (CDF1) mice
assay_conditions: endpoint: mean survival time; dose: 50.0 mg/kg/injection; schedule: Q01DX009 (ip); vehicle: saline; higher = longer survival
Inconclusive results and toxic doses are left out.

Examples with their reported T/C follow.
CC(C)C(N)C(=O)Nc1nncs1 (stereo not drawn)    110 % of control
Cc1cc(NC(=O)Oc2ccccc2)ccc1S(=O)(=O)F    98 % of control

Could you now consider this next compound?
IN: Please give the measured T/C for this compound: `CC(C)=CCC/C(C)=C/COc1ccc(/C=C2/C(=O)N(O)[C@@H](C)C(=O)N2O)cc1`
OUT: 100 % of control
